Molecular target: T1, Rb^380-816/780A, unphosphorylated (UniProt P06400 380-816, 780A)
T1 sequence (looked up): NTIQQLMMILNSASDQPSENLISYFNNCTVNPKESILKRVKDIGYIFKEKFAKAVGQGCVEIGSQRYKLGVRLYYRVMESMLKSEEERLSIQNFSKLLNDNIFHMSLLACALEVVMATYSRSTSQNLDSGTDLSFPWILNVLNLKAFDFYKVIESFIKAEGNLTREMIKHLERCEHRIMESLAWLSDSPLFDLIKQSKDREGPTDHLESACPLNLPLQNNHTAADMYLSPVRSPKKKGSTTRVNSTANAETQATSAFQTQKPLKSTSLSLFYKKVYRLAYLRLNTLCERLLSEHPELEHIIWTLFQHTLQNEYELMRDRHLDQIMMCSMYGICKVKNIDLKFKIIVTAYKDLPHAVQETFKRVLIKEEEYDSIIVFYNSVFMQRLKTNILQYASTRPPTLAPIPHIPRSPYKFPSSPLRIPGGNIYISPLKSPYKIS
Experiment: ITC
value-kind: Kd (nM)
Field format: number, assumed nM, no unit text.

Which measured Kd value corresponds to E2F1 transactivation domain (E2F1^TD, residues 372-437) (domain or fragment, UniProt Q01094 372-437, looked up) DRLSPLVAADSLLEHVREDFSGLLPEEFISLSPPHEALDYHFGLEEGEGIRDLFDCDFGDLTPLDF ?
70

Entry source: paper PMC3872205
